Overview of recorded GI50 for various molecules
system: U-251; assay: NCI tumour cell line growth inhibition, 48 h
Activity calls are given as the source filed them. No stated cut-off is given here; in the data, active = GI50 up to about 1.1 µM and inactive = higher.

Here is how some molecules turned out for GI50.
| molecule | quantity | result |
| --- | --- | --- |
| COc1cc2c(cc1OC)C(Cl)C(c1ccc(Br)cc1)=C2Cl (stereo not drawn) | GI50 | 10.2 µM (inactive) |
| N#CC(/C(=N/NC(=O)C(=O)NN)C(=O)NC12CC3CC(CC(C3)C1)C2)c1ccccc1 (stereo not drawn) | GI50 | > 100 µM (inactive) |

Now look at this one.
Form: Entry = `Nc1c(-c2ccccc2)c2ccc([N+](=O)[O-])cc2c(=O)n1-c1cccc(C(=O)O)c1` | System = U-251 | GI50 = ____
> 100 µM (inactive)

Data origin, for the record: ChEMBL document CHEMBL1201862
